Tested on: Mycobacterium tuberculosis
Experiment: Cornell M. t heat shock assay; further: in the data most compounds retested in dose-response had high values
Type: functional, organism-based
Design: dose or concentration left out as unconfirmed
About 950 (1.4%) of roughly 69,000 compounds showed an effect of 50% or more. What follows is part of a selection rich in strong results, with near analogues and random picks from the rest.
Give measured Percent Effect for each item. Keep answers brief.
One number for each entry, in %.

The examples below pair each entry with its known result.
compound: CCn1cc(CNc2ccc(Br)c(OC)c2)cn1
val: -14.65
--
compound: Cc1cc(NCCSc2nccn2C)n2nc(C)c(C)c2n1
val: 72.35
--
compound: COCCN(C/C=C/c1ccccc1)Cc1ncc[nH]1
val: 14.48

Please state Percent Effect for every compound in the list that follows.
1. COCCN(C/C=C/c1ccccc1)Cc1[nH]cnc1C
2. COCC(=O)NCc1nn(CCN2CCCC2)c(=O)c2ccccc12
3. COCC(=O)N1CCn2c(COc3cccnc3)cnc2C1C.O=C(O)C(F)(F)F (stereo not given)
4. O=C(c1cc(COc2ccc3c(c2)OCO3)[nH]n1)N1CCOCC1
5. CC(C)CC(NCc1ccsc1)c1ccccn1 (stereo not given)
6. COCCN(C)c1ccc(NCc2ccsc2)nc1
7. Cc1ccc(CN2CCn3c(CN(C)C(C)C)cnc3C2)s1.O=C(O)C(F)(F)F.O=C(O)C(F)(F)F
8. Cc1sc2nc(CCN)nc(N3CCS(=O)(=O)CC3)c2c1C

**Result**
[-1.061, -7.005, 5.093, 27.44, 95.2, 90.49, -14.26, 12.97]

Field: Percent Effect. Fill in for each record below.
1. Cc1cc(NCCSc2nccn2C)n2ncnc2n1
2. O=C(Cn1cccnc1=O)NC(Cc1cccs1)c1ccccn1 (stereo not given)
3. O=C(c1cc(COc2ccc3c(c2)OCO3)[nH]n1)N1CCSCC1
4. CC(C)CC(NCc1cscn1)c1ccccn1 (stereo not given)
5. Cl.Cl.c1ccc2c(c1)C(NC1CCCC1)CC21CCNCC1 (stereo not given)

**Result**
1. -35.12
2. -7.839
3. 62.66
4. 27.38
5. -6.748

List the reported Percent Effect of each compound below.
1. CCn1cc(CNc2ccc(N(C)CCOC)cn2)cn1
2. Cc1ccc(N2CC[C@H]3C[C@H](C(=O)NCc4ccco4)O[C@@H]3C2)cc1.O=C(O)C(F)(F)F
3. CCc1ccc(CN(C/C=C/c2ccccc2)CCOC)nc1
4. O=C(O)C(F)(F)F.O=C(O)C(F)(F)F.c1cncc(OCC2CN(Cc3ccsc3)Cc3nccn3C2)c1 (stereo not given)
5. CC(C)CC(NCc1cccs1)c1ccccn1 (stereo not given)
6. O=CO.c1nc(CN2CCCC(Cc3ccc(NC4CCCC4)nn3)C2)c[nH]1 (stereo not given)

**Result**
57.45
4.102
98.48
-18.26
99.48
20.05

----------
System: Mycobacterium tuberculosis
Assay: Cornell M. t heat shock assay; further: in the data most compounds retested in dose-response had high values
Type: functional, organism-based
Set-up: dose or concentration left out as unconfirmed
Among all 69,000 compounds or so, about 950 (1.4%) showed an effect of 50% or more. Only a selection was taken, and strong results are over-represented in it overall.
Under this convention, Criterion met denotes Percent Effect strictly below -10% and Criterion not met denotes Percent Effect at or above -10%.

The examples below pair each entry with its known result.
compound: Cl.O=C(NCc1cccc(Cl)c1)C1=NOC2(CCNC2)C1 (stereo unspecified)
categoryLabel: Criterion met

compound: O=C(c1nn(-c2ccccc2F)cc1O)N1CCCCC1
categoryLabel: Criterion not met

compound: Cn1nnc2c1C(COCc1cccnc1)CN(Cc1ccoc1)C2.O=C(O)C(F)(F)F.O=C(O)C(F)(F)F (stereo unspecified)
categoryLabel: Criterion met

compound: CCc1ccccc1-n1cc(O)c(C(=O)N2CCCCC2)n1
categoryLabel: Criterion not met

**Query** Consider CSc1[nH]nc(NC(=O)c2cccs2)c1C#N . Does its Percent Effect lie strictly below -10%?
**Result** Criterion not met

----------
Test system: Mycobacterium tuberculosis
Assay: Cornell M. t heat shock assay; further: in the data most compounds retested in dose-response had high values
Type: functional, organism-based
Design: dose or concentration left out as unconfirmed
In all, about 69,000 compounds went through this assay and about 950 (1.4%) showed an effect of 50% or more. The sample as a whole holds a higher share of strong results than the screen did.
Consider the following compounds; for each one, report its Percent Effect.
Give bare numbers, in %.

Take each entry in turn and give its Percent Effect.
1. O=C(NCc1ccccn1)[C@H]1COC[C@H]2CN(C3CCCC3)C[C@H]21.O=C(O)C(F)(F)F.O=C(O)C(F)(F)F
2. O=C(O)C(F)(F)F.O=C(O)C(F)(F)F.c1cc(COC[C@]23COC[C@H]2CN(CC2CCC2)C3)ccn1

**Result**
[-26.6, -30]

----------
Test system: Mycobacterium tuberculosis
Test: Cornell M. t heat shock assay; further: in the data most compounds retested in dose-response had high values
Assay type: functional, organism-based
Parameters: dose or concentration left out as unconfirmed
Among all 69,000 compounds or so, about 950 (1.4%) showed an effect of 50% or more. Many of the other results were omitted from the sample, so strong results are more common in it than they were.
Mark false for Percent Effect values under 10%, and true for everything at or above.

compound: CC(C)N(C(=O)Cn1c(-c2ccco2)cc2cccnc21)C(C)C.Cl
categoryLabel: true

compound: CCc1ccc(CN2C[C@H](OCC(=O)N(C)C)[C@H]3COC[C@H]32)o1.O=C(O)C(F)(F)F
categoryLabel: true

compound: O=C(O)C(F)(F)F.O=C(O)C(F)(F)F.O=C(O)C(F)(F)F.c1cnn(C[C@@H]2C[C@@H]3CN(CC4CC4)CC[C@@H]3N2c2nccs2)c1
categoryLabel: false

compound: C1CC(CO[C@@H]2CC[C@H]3[C@H]2OCCN3CC2CC2)CCO1.O=C(O)C(F)(F)F
categoryLabel: false

compound: CN1CCC(c2nc3ccc(-c4cccc(F)c4)cn3n2)CC1.O=C(O)C(F)(F)F
categoryLabel: false

compound: COc1ccccc1CN1CCCCC1c1n[nH]cc1-c1cc(C)no1.Cl (stereo not drawn)
categoryLabel: true

compound: CC1c2ncc(Cn3cccn3)n2CCN1Cc1cccnc1.O=C(O)C(F)(F)F.O=C(O)C(F)(F)F (stereo not drawn)
categoryLabel: false

Could you now look at the following compound, please?
**Query** Answer whether Percent Effect of Cn1cc(CN2C[C@@H]3COC[C@]3(C(=O)NCCc3ccccc3)C2)cn1.O=C(O)C(F)(F)F is greater than or equal to 10%.
**Result** false

----------
Test system: Mycobacterium tuberculosis
Assay: Cornell M. t heat shock assay; further: in the data most compounds retested in dose-response had high values
Assay type: functional, organism-based
Set-up: dose or concentration left out as unconfirmed
Among all 69,000 compounds or so, about 950 (1.4%) showed an effect of 50% or more. The list comes from a sample in which strong results are over-represented; it also holds close analogues and randomly drawn compounds.
Assignment: determine reported Percent Effect for the given molecules.
One number for each entry, in %.

molecule: CN1CCN(C(=O)c2cnsn2)c2ccc(F)cc21
val: 82.14

Your task in this section: give Percent Effect for each listed record.
1. CN1CCN(C(=O)CCc2cccnc2)c2ccc(F)cc21
2. O=C(NC1CC1)[C@@]12CCO[C@@H]1CCN(Cc1ccc3c(c1)OCO3)C2.O=C(O)C(F)(F)F
3. CCC(CN1CCCCC1)NC(=O)C1(c2ccc(F)cc2)CC1.O=C(O)CC(O)(CC(=O)O)C(=O)O (stereo not given)

**Result**
15.62
3.117
-8.056

Dear colleague, could you send me Percent Effect for each of the items below? Thanks.
1. Cc1ccc(S(=O)(=O)c2ncccc2CN2CCOCC2)cc1
2. O=C(O)C(F)(F)F.c1cnc(N2CCC3(CCCN(Cc4ccncc4)C3)CC2)nc1
3. O=C(O)C(F)(F)F.O=C1NCC[C@]12CN(CC1CCOCC1)C[C@H]2c1ccccc1
4. Cc1nc[nH]c1CN1C[C@@H]2CC[C@H](C1)N(C(=O)c1cnn(C)c1)C2
5. CC(C)COC(C)C(=O)NCCNS(C)(=O)=O (stereo not given)
6. Cc1ccc(-n2cc(CN3CCOCC3)c(-c3cccc(C)c3)n2)cc1
7. Cc1ccc(CN(CCCn2ccnc2)Cc2[nH]cnc2C)s1.O=C(O)CC(O)(CC(=O)O)C(=O)O

**Result**
[-21.96, -2.214, -6.347, -6.364, -20.75, 101.4, -16.97]

I have 6 molecules here; please give me Percent Effect for each one.
1. CC(=O)N1CCN(Cc2ccccn2)CC2(CC(=O)N(C)C2)C1.O=C(O)C(F)(F)F.O=C(O)C(F)(F)F (stereo not given)
2. CCN(CC)S(=O)(=O)CC(=O)N1CCc2ccc(F)cc21
3. CCc1cc(=O)n(CCNC(=O)Nc2ccc(OC(F)(F)F)cc2)cn1
4. O=C(C1CCC1)N1CCC(=O)N(C2CC2)Cc2cc(F)ccc21
5. CN1CCCN(C(=O)c2cnsn2)c2cc(F)ccc21
6. CS(=O)(=O)c1ccc(C(=O)N2CCCC(n3ccnc3)C2)cc1 (stereo not given)

**Result**
[-32.82, -19.64, 32.6, 39.59, -35.83, 8.305]

Hi! Can you tell me Percent Effect for each of these molecules?
1. Cc1cccc(CN2CCCC3(CCC(=O)N3CCN(C)C)CC2)n1.O=C(O)C(F)(F)F.O=C(O)C(F)(F)F (stereo not given)
2. CN1CCN(C(=O)c2csnn2)c2ccccc21
3. O=C(Nc1cccnc1)[C@@H]1COC[C@H]2CN(C3CCCC3)C[C@H]21.O=C(O)C(F)(F)F.O=C(O)C(F)(F)F

**Result**
1: -9.93; 2: -18.09; 3: -37.6
